- ASSAY_REMARKS: Preventive effect against the growth of Ehrlich ascites tumor (method A)
- Assay type: in vivo, mice
- EXPERIMENTAL_PARAMETERS: mouse, in vivo, ip; Maximum Tolerated Dose: maximum dose with 100% inhibition of Ehrlich ascites tumor growth without death of mice; dose column in mg/kg/day
Would you mind telling me the reported MTD at 168 h of each entry?
One number for each entry, in mg/kg/day.

Solved entries:
[[record]]
molecule = "CO[C@H]1O[C@H](CO)[C@@H](O)[C@H](N(C)C(=O)N(CCCl)N=O)[C@H]1O"
metric = "MTD at 168 h"
endpoint_result = 25

[[record]]
molecule = "CO[C@H]1O[C@H](CO)[C@@H](O)[C@H](N(CC(C)C)C(=O)N(CCCl)N=O)[C@H]1O"
metric = "MTD at 168 h"
endpoint_result = 25

[[record]]
molecule = "C=CCN(C(=O)N(CCCl)N=O)[C@@H]1[C@@H](O)[C@@H](OC)O[C@H](CO)[C@H]1O"
metric = "MTD at 168 h"
endpoint_result = 25

[[record]]
molecule = "COCCN(C(=O)N(CCCl)N=O)[C@@H]1[C@@H](O)[C@@H](OC)O[C@H](CO)[C@H]1O"
metric = "MTD at 168 h"
endpoint_result = 25

[[record]]
molecule = "O=NN(CCCl)C(=O)N[C@@H]1O[C@H](CO)[C@@H](O)[C@H](O)[C@H]1O [GANU, reference compound]"
metric = "MTD at 168 h"
endpoint_result = 12.5


I would be grateful if you could provide MTD at 168 h for each of the following entries.
1. C#CCN(C(=O)N(CCCl)N=O)[C@@H]1[C@@H](O)[C@@H](OC)O[C@H](CO)[C@H]1O
2. CCCCN(C(=O)N(CCCl)N=O)[C@@H]1[C@@H](O)[C@@H](OC)O[C@H](CO)[C@H]1O

1: 25; 2: 50

====

- System: Ehrlich ascites carcinoma
- ASSAY_REMARKS: Preventive effect against the growth of Ehrlich ascites tumor (method A)
- Type: in vivo, mice
- EXPERIMENTAL_PARAMETERS: Mus musculus, Ehrlich, ip, 168 h; dose 0.097 mg/kg/day i.p. x 5 days; read-out: Inhibition ratio (%)
METRIC: inhibition in vivo at 0.097 mg/kg/day (%)
Give bare numbers, in %.

I would be grateful if you could provide inhibition in vivo at 0.097 mg/kg/day for each of the following entries.
1. COCCN(C(=O)N(CCCl)N=O)[C@@H]1[C@@H](O)[C@@H](OC)O[C@H](CO)[C@H]1O
2. CO[C@H]1O[C@H](CO)[C@@H](O)[C@H](N(C)C(=O)N(CCCl)N=O)[C@H]1O
3. CO[C@H]1O[C@H](CO)[C@@H](O)[C@H](N(CC(C)C)C(=O)N(CCCl)N=O)[C@H]1O
4. C=CCN(C(=O)N(CCCl)N=O)[C@@H]1[C@@H](O)[C@@H](OC)O[C@H](CO)[C@H]1O

1: 0; 2: 2.7; 3: 8.1; 4: 29.7

====

- System: Ehrlich ascites carcinoma
- ASSAY_REMARKS: Preventive effect against the growth of Ehrlich ascites tumor (method A)
- Type: in vivo, mice
- EXPERIMENTAL_PARAMETERS: dose 50 mg/kg/day i.p. x 5 days; group of five mice
Marks after values point to notes of the source that are not given here.
METRIC: Toxic

[[record]]
smiles_entry = "C#CCN(C(=O)N(CCCl)N=O)[C@@H]1[C@@H](O)[C@@H](OC)O[C@H](CO)[C@H]1O"
target = "Ehrlich ascites carcinoma"
endpoint_result = "Toxic (1/5)*"

[[record]]
smiles_entry = "CO[C@H]1O[C@H](CO)[C@@H](O)[C@H](N(CC(C)C)C(=O)N(CCCl)N=O)[C@H]1O"
target = "Ehrlich ascites carcinoma"
endpoint_result = "Toxic (1/5)*"

[[record]]
smiles_entry = "CO[C@H]1O[C@H](CO)[C@@H](O)[C@H](N(C)C(=O)N(CCCl)N=O)[C@H]1O"
target = "Ehrlich ascites carcinoma"
endpoint_result = "Toxic (1/5)*"


# credit: patent EP0056458B1
